// cytotoxicity at 70.5 h lookup, one value per entry
PROTOCOL_TEXT: Human HepG2 cell viability assay in 384 well format
Format: toxicity, cell-based
Parameters: dose 125 nL, time 70.5 hour; concentration not given beside the values
SETTINGS: HepG2 cells, read-out: Inhibition
EXPERIMENTAL_READOUT: cytotoxicity at 70.5 h (%)

COMPOUND	UNITS	ASSAY_VALUE
Cn1c(CN2CCCC(N3CCCCCC3)C2)cc(=O)n(C)c1=O (configuration not stated)	%	-4.65
O=C(CCc1nc2cccnc2[nH]1)Nc1cccnc1	%	-16.2
O=C(c1ccco1)N1CCC2(CCC(=O)N2Cc2cccc(F)c2)CC1	%	-15.7
CN1[C@H](CN2CCCC2)C[C@@H]2CN(C(=O)Cc3cccs3)CC[C@@H]21	%	27.9
COc1ccnc(N2CCN(C(=O)NCc3ccc(C)s3)CC2)n1	%	1.2
CC(C)CS(=O)(=O)Nc1ccc([C@H]2OCC(=O)N[C@@H]2CO)cc1	%	0.34
O=C(CNc1cc2c(cc1Cl)OCCO2)NCC(F)(F)F	%	-3.78
COCCc1noc(CN(C)c2nc(C)cc(C)n2)n1	%	-9.27
CC(=O)N1CCN(C(=O)NC(C)Cn2ccnc2)CC1 (configuration not stated)	%	-0.59
CCCNC(=O)c1ccc(S(=O)(=O)NCC2(O)CCCNC2)cc1 (configuration not stated)	%	-5.48
O=S(=O)(NCCSc1nncn1C1CC1)c1ccccc1	%	30.9
Cc1[nH]ncc1CCCNC(=O)Nc1ccc(S(C)(=O)=O)nc1	%	10.3
Cc1csc(CNc2cccc(OCCN3CCCC3)c2)n1	%	19.9
COCC(C)N1CCc2onc(-c3ccc(F)c(F)c3)c2C1 (configuration not stated)	%	-1.71
NC(=O)COc1cccc(CN2CCc3cncnc3C2)c1	%	-0.423
Cc1nc2c(c(N3CCC(O)(CN4CCCC4)CC3)n1)CCN(C)CC2	%	-3.57
CC(C)(C)CC(=O)N1CCc2sccc2C1	%	-7.51
CC(=O)N1CC(C(=O)Nc2cccc(OC(F)F)c2)C1	%	-3.71
Cn1c(N)nnc1SC1CCCN(c2ccccc2)C1=O (configuration not stated)	%	-1
Fc1ccccc1NCc1nc2n(n1)CCCCC2	%	-19.3
Cc1ccc(C(C)N(C)Cc2nc3c(cnn3C)c(=O)[nH]2)c(C)c1 (configuration not stated)	%	-4.81
Cc1cn2c(n1)CCC(NC(=O)CCn1ccnn1)C2 (configuration not stated)	%	-8.67
c1cnnc(N2CCCC2CNCc2nc(-c3ccco3)no2)c1 (configuration not stated)	%	-14.5
c1cnnc(N2CCCC2CNc2ncnc3c2CCC3)c1 (configuration not stated)	%	-2.98
COCc1cccc(NC(=O)N(C)Cc2ncc(C)c(OC)c2C)c1	%	-3.88
Cc1noc(C)c1S(=O)(=O)NC(=O)COc1ccc(C(C)C)cc1	%	-9.11
CC/C=C(/C)C(=O)NCc1ccnc(OC2CCOCC2)c1	%	-9.32
Cc1ccccc1CC(=O)N1C[C@H]2CC[C@@H]1CN(Cc1cccnc1)C2	%	-4.12
CC(C)OC(=O)N1CCCC2(CCC(=O)N(CCc3c[nH]cn3)C2)C1 (configuration not stated)	%	-1.99
CCCc1ncc(C(=O)c2ccc(OC)cc2)n1C	%	14.7
O=C(NCCO)c1cc(-c2ccc3c(c2)CCO3)n[nH]1	%	18
CCC(C)N(Cc1cnc(OC)nc1)Cc1ccsc1 (configuration not stated)	%	-3.9
CN(Cc1cc(-c2cccnc2)no1)C(=O)[C@@H]1CSCN1C	%	-8.97
CN(CC1COc2ccccc2O1)C(=O)CCn1cncn1 (configuration not stated)	%	-9.47
CCN(Cc1ccoc1)C(=O)c1cc(C)c(C)c(S(N)(=O)=O)c1	%	-9.16
O=C1CCCc2occ(C(=O)N3CCCC(O)(CO)C3)c21 (configuration not stated)	%	31
Cc1ccc2[nH]c(=O)cc(C(=O)N[C@@H]3C[C@@H](CO)N(C)C3)c2c1	%	-14.7

====

PROTOCOL_TEXT: Human HepG2 cell viability assay in 384 well format
Format: toxicity, cell-based
Design: dose 125 nL, time 70.5 hour; concentration not given beside the values
SETTINGS: HepG2 cells, read-out: Inhibition

COMPOUND	cytotoxicity at 70.5 h [%]
CC1COCCN1C(=O)c1cccc(OCc2cscn2)c1 (stereo unspecified)	-8.23
COCc1cn([C@@H]2c3ccccc3C3(CCNCC3)[C@H]2O)nn1	-6.38
Cc1cnn(CC2CN(CCc3cccs3)CCO2)c1 (stereo unspecified)	-2.69
NC(=O)c1c[nH]nc1NC(=O)c1cccc(Cl)c1	-3.76
COCCCN1C(=O)CC[C@H]2CN(c3cnc4ccccc4n3)CC[C@H]21	25
OC1(CN2CCC(Cc3ncccn3)CC2)CCCCC1	-5.56
Cn1cc(NC(=O)NC2CCCN(c3ccccc3Cl)C2=O)cn1 (stereo unspecified)	-5.63
Cc1ncc2c(n1)CCN(Cc1nc3ccccc3o1)C2	0.854
O=C(NCc1c[nH]c(=O)[nH]c1=O)C1CCOc2ccccc2C1 (stereo unspecified)	8.26
CCOCC1CN(c2ccncn2)Cc2cnn(CC3CC3)c21 (stereo unspecified)	-7.56
CC(C)c1cc(NC(=O)c2ccc(NC3CC3)nc2)[nH]n1	-5.73

====

// cytotoxicity at 70.5 h lookup, one value per entry
PROTOCOL_TEXT: Human HepG2 cell viability assay in 384 well format
Format: toxicity, cell-based
Set-up: dose 125 nL, time 70.5 hour; concentration not given beside the values
SETTINGS: HepG2 cells, read-out: Inhibition

COMPOUND	UNITS	cytotoxicity at 70.5 h
CCn1cc(CN(C)S(=O)(=O)c2ccc(C(C)C)cc2)cn1	%	-6.2
CC(C)CC(=O)N1CCN(Cc2cc(-c3ccncc3)nn2C)CC1	%	-3.33
O=C(CSCC1CC1)N1CCc2[nH]nc(COc3ccccc3)c2C1	%	-6.96
COc1ccc(CNC(=O)NC2CCN(C)CC2)c(C(F)(F)F)c1	%	2.4
CNC(=O)C1CN(C)CCN1c1nc(C)cc(C)n1 (stereo unspecified)	%	14.1
CN(Cc1ccc(Cl)s1)C(=O)Nc1ccc(N(C)C)nc1	%	-11.5
Cc1nn(CCC#N)c(C)c1CCC(=O)N(C)Cc1ccsc1	%	-8.77
CC(C)c1cc(C(=O)NCCn2nc3ccccn3c2=O)n[nH]1	%	-4.09
Cc1ccc(N2CCCC3(COCCN(c4cnccn4)C3)C2)nn1 (stereo unspecified)	%	-0.306
CCc1ccc2nc(C)cc(C(=O)NCc3csc(N(C)C)n3)c2c1	%	16.3
CC(C(=O)NCc1ccc(N2CCCCC2)nc1)S(C)(=O)=O (stereo unspecified)	%	-5.42
CCn1nc2ccc(S(=O)(=O)N3CCSCC3)cn2c1=O	%	-9.47
Cn1c(CN2CCCC(N3CCNC3=O)C2)cc(=O)n(C)c1=O (stereo unspecified)	%	26.4
COc1ccc(C(=O)N2CCCC2c2cnn(C)c2)cn1 (stereo unspecified)	%	9.21
O=C(Nc1c(N2CCCC2)cccc1N1CCCC1)c1cnsn1	%	-16
CN(C(=O)c1cccnc1)C1CCCN(CCc2ccccc2)C1 (stereo unspecified)	%	-5.02
CS(=O)(=O)N(Cc1ccon1)c1ccc2c(c1)OCO2	%	-6.03
COCCCN(CCOC)C(=O)Nc1ccc(Br)cc1	%	-7.21
CCN(Cc1cc(F)c(OC)c(Cl)c1)Cc1nc(COC)no1	%	12.1
COc1ccc(-c2cc(C3(O)CCCC3)on2)cc1	%	1.51
Cn1cc(N2C(=O)CC[C@@H]3[C@H]2CCN3C(=O)c2cscn2)cn1	%	-10.2
CNC(=O)C1(c2cnccn2)CCCN1C(=O)c1ccccn1 (stereo unspecified)	%	8.19
CNc1nc(C(=O)N2CCN(c3cc(C)nc(C)c3)CC2)cs1	%	-9.69
Cn1cccc1C1CCCN1Cc1noc(C(C)(C)C)n1 (stereo unspecified)	%	-21.2
c1ccn(Cc2nnc3n2CCCN(c2cnccn2)C3)c1	%	16
Cc1nc(CN2C[C@@H]3CN(C(=O)c4ccncc4)C[C@@H]3C2)cs1	%	-9.65
Cc1cc(N(C)CCN(C)C2CCCC2)n2nc(C)cc2n1	%	-1.99
Cc1ccsc1C(=O)N(C)Cc1ccncc1	%	-7.89
Cc1noc(C)c1-c1cc(CCC2CN(CCC(N)=O)CCO2)ncn1 (stereo unspecified)	%	-2.2
Cc1noc(C(C)N2CCN(CCc3ccncc3)CC2)n1 (stereo unspecified)	%	-4.19
CCc1nnsc1C(=O)N1CCCC(COc2ccc(F)cc2)C1 (stereo unspecified)	%	-4.43
CCc1nn(C)c2[nH]nc(NC(=O)c3cccnc3OCC(C)C)c12	%	-90.4
CCCNC(=O)NC(=O)CNC(C)(C)c1ccc2c(c1)OCO2	%	-0.993
O=C(c1ccc(-c2cnco2)cc1)N1CCC(Nc2cccnn2)CC1	%	-4.21
CN(C)CCn1ccc2cc(NC(=O)NCc3ccon3)ccc21	%	-8.32
Cc1ccc(S(=O)(=O)Cc2noc([C@@H]3C[C@@H](O)CN3)n2)cc1	%	-3.28
COCC(=O)N1CCCCC1c1ccnc(Nc2cnccn2)n1 (stereo unspecified)	%	-7.98
NCC1(CN2CCOCC2)CCCCC1	%	14.2
Cc1c(NCc2cccc(C#N)c2)cccc1S(=O)(=O)NC1CC1	%	4.95
Cc1ccoc1C(=O)N1CCCC(c2cc(C(F)(F)F)[nH]n2)C1 (stereo unspecified)	%	-8.09
COCCNC(=O)C1CCCN1S(=O)(=O)c1sc(=O)[nH]c1C (stereo unspecified)	%	-6.44
